# assay remarks: mn = molality of the nth substance listed, in mol/kg
# experimental setup: 323.15 K, Pendant drop shape, m2 = 0
± gives the expanded uncertainty stated by the source.
Each entry below carries its reported surface tension liquid-gas.
Don't forget the unit after the number, please.

# compound, readout, measured result
data = [
    ("O [water] + CCCCCCCCCCCC[NH2+]C1O[C@H](CO)[C@@H](O[C@@H]2O[C@H](CO)[C@H](O)[C@H](O)[C@H]2O)[C@H](O)[C@H]1O.CCCCCCCCCCCC[NH2+]C1O[C@H](CO)[C@@H](O[C@@H]2O[C@H](CO)[C@H](O)[C@H](O)[C@H]2O)[C@H](O)[C@H]1O.O=C([O-])CC(=O)[O-]", "surface tension liquid-gas", "68.05 ± 1.5 mN/m"),
    ("O [water] + CCCCCC(=O)[O-].CCCCCCCCCCCC[NH2+]C1O[C@H](CO)[C@@H](O[C@@H]2O[C@H](CO)[C@H](O)[C@H](O)[C@H]2O)[C@H](O)[C@H]1O", "surface tension liquid-gas", "68.72 ± 0.79 mN/m"),
    ("O [water] + CCC(=O)[O-].CCCCCCCCCCCC[NH2+]C1O[C@H](CO)[C@@H](O[C@@H]2O[C@H](CO)[C@H](O)[C@H](O)[C@H]2O)[C@H](O)[C@H]1O", "surface tension liquid-gas", "68.57 ± 0.79 mN/m"),
]

Now take the following compound into account.
Fill in the blank: the reported surface tension liquid-gas of O [water] + CCCCCCCCCCCC[NH2+]C1O[C@H](CO)[C@@H](O[C@@H]2O[C@H](CO)[C@H](O)[C@H](O)[C@H]2O)[C@H](O)[C@H]1O.CCCCCCCCCCCC[NH2+]C1O[C@H](CO)[C@@H](O[C@@H]2O[C@H](CO)[C@H](O)[C@H](O)[C@H]2O)[C@H](O)[C@H]1O.O=C([O-])CCCCC(=O)[O-] is ____.
68.94 ± 1.5 mN/m
